Molecular target: T1, mono-ubiquitin (UniProt P0CG48 1-76)
T1 construct: ubiquitin (mono-ubiquitin); The methods describe neither a plasmid nor a supplier for the mono-ubiquitin
Test: SPR; Biacore S200; GST-HOIP NZF1 held on anti-GST antibodies amine-coupled to a CM5 chip, GST as control; analytes in 10 mM HEPES pH 7.4, 150 mM NaCl, 0.005% P20; mono-ubiquitin 288.0-1.1 µM, mNEMO 100.0-0.4 µM; equilibrium KD; duplicate
Settings: both partners purified
reported-property: pKd
# reply with the number alone; pKd is -log10 of concentration in mol/L

response.value for ARGRWACQSCTFENEAAAVLCSICERPRLA (domain or fragment, human, UniProt Q96EP0 350-379, looked up, HOIP, human, NZF1 domain, residues 350-379; Held on the SPR chip by anti-GST antibodies; how the uncleaved fusion was purified is not described; source: E. coli BL21 (DE3), expressed as GST-fusion protein; not shown: GST, N-terminal, kept) [GST-HOIP NZF1(a.a. 350–379)] (field: pKd) = 3.87
